- Target Under Test: biotinylated human DLL3 protein expressed as a human IgG1 fusion protein (human) (UniProt Q9NYJ7)
- Sequence (Q9NYJ7 27-492): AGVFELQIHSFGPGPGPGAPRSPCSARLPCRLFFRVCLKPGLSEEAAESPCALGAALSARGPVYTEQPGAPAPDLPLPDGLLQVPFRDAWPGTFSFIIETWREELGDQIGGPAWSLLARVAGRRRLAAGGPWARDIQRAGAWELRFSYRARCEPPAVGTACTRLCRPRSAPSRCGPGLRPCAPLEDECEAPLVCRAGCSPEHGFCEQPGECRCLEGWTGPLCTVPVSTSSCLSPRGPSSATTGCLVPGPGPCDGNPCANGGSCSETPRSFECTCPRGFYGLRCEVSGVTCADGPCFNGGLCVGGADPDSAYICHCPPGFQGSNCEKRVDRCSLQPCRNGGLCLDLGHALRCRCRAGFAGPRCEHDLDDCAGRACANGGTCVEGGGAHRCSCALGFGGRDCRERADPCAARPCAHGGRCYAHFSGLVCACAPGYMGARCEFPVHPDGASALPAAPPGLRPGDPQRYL
- Method Description: Octet, biotinylated human DLL3-IgG1 fusion on streptavidin tips, single 50 nM, conditioned medium (relative KD)
Listing of entries alongside the reported pKd.
Entry type: numeric. Quantity: pKd, the -log10 of concentration in molar units.

Some entries whose results are on file:
>>> result_number("anti-DLL3 trispecific protein, DLL3 binder 4E07 (protein, part only; not given: CD3 binder and albumin binder, part only) chain, part: EVQLVESGGGLVQPGGSLTLSCAASGSRVSFLSMAWYRQAPGKKRELVAGISADGSTMYIDSVKGRFTISRDNAKNSVYLQMNSLRAEDTAVYYCYAYRWTTRLTYWGQGTLVTVSSGGGGSGGGSGGGGSGGGSHHHHHH")
7.96
>>> result_number("anti-DLL3 trispecific protein, DLL3 binder 3D01 (protein, part only; not given: CD3 binder and albumin binder, part only) chain, part: EVQLVESGGGLVQPGGSLTLSCAASGSSVSFLSMAWYRQAPGKKRELVAGISRDGSTDYIDSVKGRFTISRDNAKNSVYLQMNSLRAEDTAVYYCYAYRWITRYTYWGQGTLVTVSSGGGGSGGGSGGGGSGGGSHHHHHH")
8.00
>>> result_number("anti-DLL3 trispecific protein, DLL3 binder 1D02 (protein, part only; not given: CD3 binder and albumin binder, part only) chain, part: EVQLVESGGGLVQPGGSLTLSCVASGSTSSINAMAWYRRAPGKQRELVAGISSNGSKVYADSVKGRFTISRDNAKNSVYLQMNSLRAEDTAVYYCYYFRQVSGSSMRYWGQGTLVTVSSGGGGSGGGSGGGGSGGGSHHHHHH")
7.85

// switching to the query binder
Supply pKd value. Item: anti-DLL3 trispecific protein, DLL3 binder 4F03 (protein, part only; not given: CD3 binder and albumin binder, part only) chain, part: EVQLVESGGGLVQPGGSLTLSCAASGSSVQFLSMAWYRQAPGKKRELVAGISYDGSTDYIDSVKGRFTISRDNAKNSVYLQMNSLRAEDTAVYYCYAYRWRTRYTYWGQGTLVTVSSGGGGSGGGSGGGGSGGGSHHHHHH
7.92
